The following molecules are shown together with reported pIC50 values.
Tested on: MDA-MB-468
Assay: Cytotoxicity against human MDA-MB-468 cells assessed as reduction in cell viability incubated for 72 hrs by cell-titer blue assay
Assay type: functional, cell-based
Conditions: MDA-MB-468, 72 h
pIC50: −log10 of the molar value.

Examples with answers:
CC(C)(C)OC(=O)N(Cc1ccc(C(C)(C)C)cc1)c1ccc(C(=O)NO)cc1 :: < 4.60
CC(C)(C)c1ccc(CNc2ccc(C(=O)NO)cc2)cc1 :: < 4.60
CC(C)(C)c1ccc(CN(C(=O)CNS(=O)(=O)c2ccc(F)cc2)c2ccc(C(=O)NO)cc2)cc1 :: < 4.90

Now let's try a different one.
Q: What does the record list as pIC50 for `CC(=O)N(Cc1ccc(C(C)(C)C)cc1)c1ccc(C(=O)NO)cc1` ?
A: < 4.60
